Target: TYK2 (Homo sapiens)
Construct: endogenous in cells; host or cells: Molt4 (ATCC CRL-1582) and Ramos (ATCC CRL-1596), mixed lysate 1:2
Sequence (P29597 whole entry): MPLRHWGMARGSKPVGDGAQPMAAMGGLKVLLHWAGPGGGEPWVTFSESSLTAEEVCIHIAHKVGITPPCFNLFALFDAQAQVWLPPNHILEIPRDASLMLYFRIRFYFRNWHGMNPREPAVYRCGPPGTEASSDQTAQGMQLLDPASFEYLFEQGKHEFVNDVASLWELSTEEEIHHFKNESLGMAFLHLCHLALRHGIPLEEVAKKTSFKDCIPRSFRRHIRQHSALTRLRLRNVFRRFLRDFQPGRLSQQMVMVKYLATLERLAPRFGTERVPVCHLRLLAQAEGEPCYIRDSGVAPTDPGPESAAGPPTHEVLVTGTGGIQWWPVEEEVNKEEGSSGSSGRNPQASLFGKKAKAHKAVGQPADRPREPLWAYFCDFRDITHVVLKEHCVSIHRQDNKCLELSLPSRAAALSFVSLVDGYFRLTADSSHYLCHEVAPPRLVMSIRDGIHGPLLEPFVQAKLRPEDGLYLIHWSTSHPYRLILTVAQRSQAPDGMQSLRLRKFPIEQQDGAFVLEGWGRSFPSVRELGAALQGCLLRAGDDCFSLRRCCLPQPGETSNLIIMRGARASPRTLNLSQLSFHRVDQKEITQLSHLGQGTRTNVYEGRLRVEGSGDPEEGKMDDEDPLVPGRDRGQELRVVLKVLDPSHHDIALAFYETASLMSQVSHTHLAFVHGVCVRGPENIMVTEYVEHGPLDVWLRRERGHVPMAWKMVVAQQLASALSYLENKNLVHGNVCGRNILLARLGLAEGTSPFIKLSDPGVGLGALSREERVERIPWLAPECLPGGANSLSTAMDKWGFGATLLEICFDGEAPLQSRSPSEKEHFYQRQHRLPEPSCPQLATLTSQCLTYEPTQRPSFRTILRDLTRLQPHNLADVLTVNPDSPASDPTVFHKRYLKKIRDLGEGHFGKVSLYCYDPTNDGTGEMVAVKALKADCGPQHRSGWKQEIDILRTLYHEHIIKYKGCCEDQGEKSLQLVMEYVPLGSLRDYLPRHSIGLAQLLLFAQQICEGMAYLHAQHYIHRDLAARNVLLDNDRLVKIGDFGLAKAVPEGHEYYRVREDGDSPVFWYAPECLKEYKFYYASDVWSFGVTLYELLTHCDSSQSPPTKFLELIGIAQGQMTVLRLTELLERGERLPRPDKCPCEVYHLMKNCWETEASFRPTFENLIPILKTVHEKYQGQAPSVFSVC
Test: Kinobeads assay, TYK2 (competition binding in mixed Molt4/Ramos cell lysate, dot blot detection)
Details: Kinobeads assay, Molt4/Ramos lysate; read-out: TYK2 Band (Kinobeads assay potency, IC50)
IC50 by entry:

structure as smiles	IC50
CN(C)C(=O)Cn1cc(Nc2ncc(F)c(NCc3c(F)ccc(F)c3F)n2)cn1	10 to 100 nM
C[C@H](CO)NC(=O)Cn1cc(Nc2nccc(NCc3c(Cl)ccc(Cl)c3F)n2)cn1	10 to 100 nM
CS(=O)(=O)c1cccc(CNc2nc(Nc3cnn(CC(F)F)c3)ncc2Cl)c1	1000 to 10000 nM
O=C(O)Cn1cc(Nc2ncc(F)c(NCc3c(F)cc(F)cc3F)n2)cn1	10 to 100 nM
Cc1cnc(Nc2cnn(CC(F)F)c2)nc1NCc1cccc(S(C)(=O)=O)c1	100 to 1000 nM
Cc1cnc(Nc2cnn(CCC(F)(F)F)c2)nc1NCc1cc(F)cc(F)c1	1000 to 10000 nM
CNC(=O)Cn1cc(Nc2ncc(Cl)c(NCc3ccccc3S(C)(=O)=O)n2)cn1	1000 to 10000 nM
COc1ccc(F)c(CNc2nc(Nc3cnn(CC(=O)N(C)C)c3)ncc2F)c1F	≤ 10 nM
